# Protocol details: SK-BR-3 cell growth inhibitors, pilot screen, 24 h, human (AID 572);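 note: compound exposure lasted between 18 and 24 h rather than exactly 24 h; 100% = carrier-treated control wells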
# Condition summary: SK-BR-3 viability, CellTiter-Glo luminescence, at 10 µM, active compounds read low
# viability annotations

{"Compound": "CC1(C)Cc2c(sc3c2C2=NCCN2C=N3)CO1", "viability (%)": 111}
{"Compound": "OCCN1CCN(CC(O)COc2ccc3ccccc3c2)CC1 (stereo not given)", "viability (%)": 88.5}
{"Compound": "c1ccc(CNc2c3c(nc4ncnn24)CCCC3)nc1", "viability (%)": 95.5}
{"Compound": "COc1ccc(OC(C)C(=O)N2CC(C)OC(C)C2)cc1 (stereo not given)", "viability (%)": 100}
{"Compound": "CC1CC(C)CN(CCCNC(=O)COc2cc(=O)n(C)c3ccccc23)C1 (stereo not given)", "viability (%)": 90}
{"Compound": "O=c1oc2ccccc2c2c1ncn2-c1ccccc1", "viability (%)": 100}
{"Compound": "Cc1ccc(C(=O)CC2(O)C(=O)N(CN3CCOCC3)c3ccccc32)cc1 (stereo not given)", "viability (%)": 100}
{"Compound": "CCCCP(=O)(CCCC)Cc1ccccc1O", "viability (%)": 99.5}
{"Compound": "COc1cc(CN(C)CC(=O)c2[nH]c(C)c(C(C)=O)c2C)ccc1OC(F)F", "viability (%)": 104}
{"Compound": "COc1cc2c(cc1OC)C(C)N(C(=O)c1cc3n(n1)C(C(F)(F)F)CC(c1ccco1)N3)CC2 (stereo not given)", "viability (%)": 108}
{"Compound": "O=C(CN1CCC(n2nnc3cc(F)ccc32)CC1)Nc1ccc2c(c1)CCC2", "viability (%)": 93}
{"Compound": "COC(=O)c1cc(OC)c(OC)cc1NC(=O)CCC1CCCC1", "viability (%)": 103}
{"Compound": "Fc1ccc(-c2csc3nnc(SCc4cccnc4)n23)cc1", "viability (%)": 108}
{"Compound": "COC(=O)C(CC(C)C)NC(=O)CSc1nc(-c2ccccc2)c(C#N)c(=O)[nH]1 (stereo not given)", "viability (%)": 110}
{"Compound": "CCCC(=O)Nc1nnc(Sc2ccc(N(C)C)cc2)s1", "viability (%)": 100}
{"Compound": "Cc1c(C(=O)O)oc2ccc(S(=O)(=O)NCc3ccccc3)cc12", "viability (%)": 105}
{"Compound": "O=P(O)(O)c1ccccc1OCCOCCOc1ccccc1P(=O)(O)O", "viability (%)": 101}
{"Compound": "O=c1[nH]c2c(s1)C(c1ccco1)C1C3CCC(C3)C1S2 (stereo not given)", "viability (%)": 100}
{"Compound": "O=C1C2CCCN2C(c2ccc(Cl)cc2)N1c1nccs1 (stereo not given)", "viability (%)": 99}
{"Compound": "O=C1CC(N2CCOCC2)C(=O)N1c1ccccc1Cl (stereo not given)", "viability (%)": 103}
{"Compound": "O=C(CSc1nnc(-c2ccncc2)n1-c1ccc(F)cc1)NC(=O)NCc1ccco1", "viability (%)": 132}
{"Compound": "Cc1cccn2c(=O)c3cc(C#N)c(=O)n(CCCN4CCOCC4)c3nc12", "viability (%)": 88.5}
{"Compound": "Cc1oc(-c2ccc(Cl)cc2)nc1CS(=O)CC(=O)NCCCN(C)C1CCCCC1 (stereo not given)", "viability (%)": 91.5}
{"Compound": "S=C(c1ccc(-c2cc(Cl)ccc2Cl)o1)N1CCOCC1", "viability (%)": 80.5}
{"Compound": "COc1cc(-c2nc(-c3cccc(C(F)(F)F)c3)no2)cc(OC)c1OC", "viability (%)": 102}
